test system: CCRIS mutagenicity, Ames/micronucleus/aberration tests; experiment: CCRIS mutagenicity studies; conditions: Test System: AMES SALMONELLA TYPHIMURIUM; Strain/Indicator: TA100; Metabolic Activation: RAT, LIVER, S-9, PCB; Method: SUSPENSION
Activity calls are given as the source filed them. How the calls were made is not given here.
The reply should name one outcome from True = active, False = inactive

// param item: `O=[N+]([O-])c1cccc2c1oc1ccccc12` ; yields the recorded call
True

// param item: `O=[N+]([O-])c1ccc2c(c1)Oc1cc([N+](=O)[O-])ccc1O2` ; yields the recorded call
True

// param item: `O=[N+]([O-])c1ccc2oc3ccccc3c2c1` ; yields the recorded call
False

// param item: `O=[N+]([O-])c1ccc2c(c1)oc1ccc([N+](=O)[O-])cc12` ; yields the recorded call
True

---

Test system: CCRIS mutagenicity, Ames/micronucleus/aberration tests
Assay: CCRIS mutagenicity studies
Settings: Test System: AMES SALMONELLA TYPHIMURIUM; Strain/Indicator: TA98; Metabolic Activation: NONE; Method: STANDARD PLATE
Source text: The CCRIS database contains chemical records with carcinogenicity, mutagenicity, tumor promotion, and tumor inhibition test results. It was developed by the National Cancer Institute (NCI). Data are derived from studies cited in primary journals, current awareness tools, NCI reports, and other sources. Test results have been reviewed by experts in carcinogenesis and mutagenesis. CCRIS provides historical information from the years 1985 - 2011. It is no longer updated. […]
Activity calls are given as the source filed them. No rule for the calls is given here.
The reply should name one outcome from 1 (yes) = active, 0 (no) = inactive

Below are worked cases with known answers.
Clc1cncc(Cl)c1 ... 0 (no)
O=C(Nc1ccccc1F)c1csc([N+](=O)[O-])c1 ... 1 (yes)
O[C@@H]1C=CC=C[C@H]1O ... 0 (no)
C/C=N/O ... 0 (no)

// param item: `O=[N+]([O-])c1ccc2cccc3c2c1CC3` ; yields the recorded call
1 (yes)

// param item: `Nc1ccc(-c2ccc(N)c([N+](=O)[O-])c2)cc1[N+](=O)[O-]` ; yields the recorded call
1 (yes)

// param item: `Cc1cc(C(=O)NNCc2ccccc2)no1` ; yields the recorded call
0 (no)

// param item: `CCCCC[C@@](C)(O)/C=C/[C@H]1[C@H](O)CC(=O)[C@@H]1C/C=C\CCCC(=O)O` ; yields the recorded call
0 (no)

// param item: `O=[N+]([O-])c1ccc2c3c(cccc13)C=C2` ; yields the recorded call
1 (yes)

// param item: `O=[N+]([O-])c1ccc2c(c1)-c1nc3ccccc3c3c1c-2nc1ccccc13` ; yields the recorded call
1 (yes)

---

tested on: CCRIS mutagenicity, Ames/micronucleus/aberration tests; test: CCRIS mutagenicity studies; details: Test System: AMES SALMONELLA TYPHIMURIUM; Strain/Indicator: TA1537; Metabolic Activation: RAT, LIVER, S-9, AROCLOR 1254; Method: STANDARD PLATE
The source made the active and inactive calls. The rule behind the calls is not given here.
The reply should name one outcome from class 1 = active, class 0 = inactive

CN(C)c1ccc([C@H]2C[C@@]3(C)[C@@H](CC[C@@]3(O)/C=C\CO)[C@@H]3CCC4=CC(=O)CCC4=C32)cc1 ... class 0

// param item: `O=C(CCl)c1ccc(Cl)cc1Cl` ; yields the recorded call
class 0

// param item: `C[C@]12CC[C@@H]3c4ccc(O)cc4CC[C@H]3[C@@H]1CC[C@@H]2O` ; yields the recorded call
class 0

// param item: `O=S(=O)(O)CNc1ccc(N=Nc2cccnc2)cc1` ; yields the recorded call
class 0

---

system: CCRIS mutagenicity, Ames/micronucleus/aberration tests; experiment: CCRIS mutagenicity studies; settings: Test System: AMES SALMONELLA TYPHIMURIUM; Strain/Indicator: TA98; Metabolic Activation: RAT, LIVER, S-9, AROCLOR 1254; Method: STANDARD PLATE
Active and inactive are the calls of the source. How the calls were made is not given here.
The reply should name one outcome from class 1 for active, class 0 for inactive

// param item: `N#CC(Cl)(Cl)Cl` ; yields the recorded call
class 0

// param item: `CC(=O)Nc1ccc2ccc3cccc4ccc1c2c34` ; yields the recorded call
class 1

// param item: `CC(=O)Nc1ccc([C@@H]2O[C@@H]2C(=O)c2ccccc2)cc1` ; yields the recorded call
class 1

// param item: `c1ccc2c(c1)ccc1ncccc12` ; yields the recorded call
class 1

// param item: `c1ccc2c(c1)ccc1c3cccnc3ccc21` ; yields the recorded call
class 1

// param item: `Cc1cc2c(nc(N)n2C)c2nccnc12` ; yields the recorded call
class 1

// param item: `CC(C)(C)OC(=O)O/N=C(/C#N)c1ccccc1` ; yields the recorded call
class 0

---

system: CCRIS mutagenicity, Ames/micronucleus/aberration tests; test: CCRIS mutagenicity studies; settings: Test System: AMES SALMONELLA TYPHIMURIUM; Strain/Indicator: TA97A; Metabolic Activation: RAT, LIVER, S-9, AROCLOR 1254; Method: STANDARD PLATE
Active and inactive are the calls of the source. No rule for the calls is given here.
The reply should name one outcome from active, inactive

Below are worked cases with known answers.
CC(=O)O[C@H]1CC[C@]2(C)[C@H]3CC[C@]4(C)[C@@H]([C@H](C)CCCC(C)C)CC[C@H]4[C@@H]3C[C@@H]3N(N4C(=O)c5ccccc5C4=O)[C@@]32C1 (stereo partly drawn) ... active
C\C=C(/C=C(C)/C=C(C)/C=C/C=C(\C)C(=O)[C@]12O[C@H]1[C@@](O)(CCO)NC2=O)C(=O)OC ... active
CCNc1nc(Cl)nc(NC(C)C)n1 ... inactive
O=C1c2cccc(O)c2C(=O)c2c(O)cc(CO)cc21 ... active
O=C(O)Cc1c[nH]c2ccccc12 ... inactive

// param item: `CCCCOCC(=O)O` ; yields the recorded call
inactive

// param item: `Cc1cc(C)cc(C)c1` ; yields the recorded call
inactive

// param item: CC1OC(OC2CC(O)(CO)Cc3c(O)c4c(c(O)c32)C(=O)c2ccccc2C4=O)C(I)C(O)C1O (stereo not drawn) ; yields the recorded call
inactive

---

system: CCRIS mutagenicity, Ames/micronucleus/aberration tests; assay: CCRIS mutagenicity studies; settings: Test System: AMES SALMONELLA TYPHIMURIUM; Strain/Indicator: TA98; Metabolic Activation: HAMSTER, LIVER, S-9, AROCLOR 1254 (10%); Method: PREINCUBATION
Calls of active or inactive are those of the source. How the calls were made is not given here.
assay_endpoint: mutagenic call

Known mutagenic call results, listed for orientation:
CCS(=O)CCSP(=O)(OC)OC (configuration not stated) ... inactive; negative
O=C(Nc1cccc2c(=O)c3c(ccc4c5cc(NC(=O)c6ccccc6)c6c(=O)c7ccccc7c(=O)c6c5[nH]c43)c(=O)c12)c1ccccc1 ... inactive; negative
O=[N+]([O-])c1ccc(CCO)cc1 ... active; positive
c1ccc(N=NNc2ccccc2)cc1 ... active; positive
COc1ccc(CN(CCN(C)C)c2ncccn2)cc1 ... inactive; negative
CCOC(=O)C1OC1(C)c1ccccc1 (configuration not stated) ... inactive; negative

Turning now to a further compound:
Please tell me the measured mutagenic call for `N#CCC#N` ; system: CCRIS mutagenicity, Ames/micronucleus/aberration tests.
inactive; negative

---

System: CCRIS mutagenicity, Ames/micronucleus/aberration tests
Experiment: CCRIS mutagenicity studies
Conditions: Test System: AMES SALMONELLA TYPHIMURIUM; Strain/Indicator: TA98(NR); Metabolic Activation: NONE; Method: PREINCUBATION
From the text: The CCRIS database contains chemical records with carcinogenicity, mutagenicity, tumor promotion, and tumor inhibition test results. It was developed by the National Cancer Institute (NCI). Data are derived from studies cited in primary journals, current awareness tools, NCI reports, and other sources. Test results have been reviewed by experts in carcinogenesis and mutagenesis. CCRIS provides historical information from the years 1985 - 2011. It is no longer updated. […]
The source made the active and inactive calls. No rule for the calls is given here.
The reply should name one outcome from active, inactive

Nc1ccc(N)cc1 ... inactive
O=[N+]([O-])c1ccc2c(c1)oc1ccc([N+](=O)[O-])cc12 ... inactive
Nc1nc(-c2ccc([N+](=O)[O-])cc2)nc2c1ncn2[C@@H]1O[C@H](CO)[C@@H](O)[C@H]1O ... active
CC(=O)Nc1ccc(Oc2ccc([N+](=O)[O-])cc2)cc1 ... inactive
O=[N+]([O-])c1cccc2c1oc1ccccc12 ... active

// param item: `O=[N+]([O-])c1cc(O)c2ccc3cccc4ccc1c2c34` ; yields the recorded call
active

// param item: `Nc1ncnc2c1ncn2-c1ccc([N+](=O)[O-])cc1[N+](=O)[O-]` ; yields the recorded call
inactive

// param item: `O=[N+]([O-])c1ccc2oc3ccccc3c2c1` ; yields the recorded call
active

// param item: `Nc1nc(-c2ccc([N+](=O)[O-])cc2)nc2nc[nH]c12` ; yields the recorded call
active

// param item: `O=[N+]([O-])c1ccc2c(c1)Oc1cc([N+](=O)[O-])ccc1O2` ; yields the recorded call
inactive

// param item: `Nc1ncnc2c1ncn2Cc1ccc([N+](=O)[O-])cc1` ; yields the recorded call
inactive
